The measurements presented in this section are drawn from PubChem BioAssay AID1159580.

Test: chemical genetic growth profiling, strain panel (AID 1159580);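 further: tested at 20 µM; growth read once vehicle control cultures reached saturation at 30 °C; 1 = growth at the plate median or of vehicle wells; lower values mean less growth of the strain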
Settings: S. cerevisiae deletion strains, growth OD, locus YPL031C, strain PHO85
Hit rate of the full screen: of about 5,500 compounds, about 2,000 (36%) were called active. Roughly 18% stayed inconclusive and do not appear here. No stated cut-off is given here; in the data, active means normalized growth mostly below about 0.91 (no sharp cut-off); inconclusive means no clear call, values can overlap the other calls; inactive means mostly above about 0.92. The list shows a part of the results.
Lab note: assign the record to one of true (active), false (inactive)

# example entries with known answers
COC(=O)c1sccc1S(=O)(=O)Nc1cc(C(F)(F)F)cc(C(F)(F)F)c1 | false
CC(C)Sc1c(Cl)cccc1NC(=O)Nc1cccc(C(F)(F)F)c1 | false

Ask: // return assay outcome for Cc1cc(Sc2c([N+](=O)[O-])cc(C(F)(F)F)cc2[N+](=O)[O-])c(Cl)cc1Cl
Reply: false

Ask: // return assay outcome for O=[N+]([O-])c1ccc(Sc2ccccc2)cc1O
Reply: false

Ask: // return assay outcome for O=[N+]([O-])c1cc(C(F)(F)F)ccc1Sc1n[nH]c(-c2cc(Cl)cc(Cl)c2)n1
Reply: true

Ask: // return assay outcome for Cc1cc(N=Cc2cc(Cl)cc(Cl)c2O)no1
Reply: true

Ask: // return assay outcome for S=C(NCc1cccs1)Nc1cc(Cl)cc(Cl)c1
Reply: false

Ask: // return assay outcome for O=C1c2ccccc2C(=O)c2sccc21
Reply: true

Ask: // return assay outcome for O=C(Nc1ccc(F)cc1)c1cc(Br)ccc1O
Reply: false

Ask: // return assay outcome for COC(=O)c1cc([N+](=O)[O-])ccc1S(=O)(=O)Cc1ccc(Cl)cc1
Reply: false

Ask: // return assay outcome for O=[N+]([O-])c1ccc(NCc2ccc(Cl)c(Cl)c2)nc1
Reply: false

Ask: // return assay outcome for CC1SC(c2cccnc2)N(c2ccc(Cl)cc2)C1=O (centres undefined)
Reply: true

Ask: // return assay outcome for Cn1ncc(-c2nc(-c3ccc(Cl)cc3)cs2)c1N
Reply: false

Ask: // return assay outcome for O=S(=O)(Nc1cc(C(F)(F)F)cc(C(F)(F)F)c1)c1ccc(Cl)s1
Reply: false

Ask: // return assay outcome for N/C(=N/OCc1c(F)cccc1Cl)c1ccc(Cl)cc1
Reply: false

Ask: // return assay outcome for FC(F)(F)c1c2c(nc3cc(-c4ccco4)nn13)CCC2
Reply: false

Ask: // return assay outcome for COc1ccc(OC)c2nc3c(nc12)C(=O)c1ccccc1-3
Reply: false

Ask: // return assay outcome for Cc1oc(C(C)(C)C)cc1-c1cc(NC(=O)c2ccccc2)n[nH]1
Reply: false

Ask: // return assay outcome for FC(F)(F)c1ccncc1-c1nc(-c2ccc(Cl)cc2)cs1
Reply: false

Ask: // return assay outcome for Cc1cc2nc3c(Cl)c(O)c4ccccc4c3nc2cc1C
Reply: true

Ask: // return assay outcome for CCOC(=O)C(NC(=O)c1cccc(Cl)c1)(Nc1nc2ccccc2s1)C(F)(F)F (centres undefined)
Reply: false

Ask: // return assay outcome for CCOC(=O)c1ccc(N=Cc2cc(Cl)cc(Cl)c2O)cc1
Reply: true

Ask: // return assay outcome for CCOC(=O)C(O)(c1ccc(NC(=O)c2ccc(Cl)c(Cl)c2)cc1)C(F)(F)F (centres undefined)
Reply: false

----------
Assay: chemical genetic growth profiling, strain panel (AID 1159580);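 further: tested at 20 µM; growth read once vehicle control cultures reached saturation at 30 °C; 1 = growth at the plate median or of vehicle wells; lower values mean less growth of the strain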
Conditions: S. cerevisiae deletion strains, growth OD, locus YDL132W, strain cdc53, hits give low values
Out of some 5,500 compounds screened, about 2,000 (36%) were called active. About 18% were inconclusive and are not listed. The list shows a part of the results.
assay metric: normalized growth
Answers are plain numbers.

Answered examples (4):
Cc1csc2ncnc(N3CCN(C(=S)Nc4ccc(C(F)(F)F)cc4)CC3)c12 | 0.996
O=C(/C=C/c1ccc(Cl)cc1)Nc1cccc(Cl)c1 | 0.962
CC1SC(c2cccnc2)N(c2ccc(Cl)cc2)C1=O (stereo not given) | 0.894
O=C1C(NCc2ccccc2)=C(NCc2ccccc2)C(=O)c2ccccc21 | 0.907

Answer for every listed entry: what is its normalized growth? The entries follow.
1. Cc1cc2nc3c(Cl)c(O)c4ccccc4c3nc2cc1C
2. Cc1csc2c(N3CCN(C(=S)Nc4ccc(C(F)(F)F)cc4)CC3)ncnc12
3. O=C(NCc1ccc2c(c1)OCO2)c1cc2ccccc2s1
4. N/C(=N/OCc1c(F)cccc1Cl)c1ccc(Cl)cc1
5. COc1cc(C2SCCS2)cc(Br)c1OC(=O)NC(=O)c1c(Cl)cccc1Cl
6. CC(C)c1cccc(C(C)C)c1OC(=O)NC(=O)c1c(Cl)cccc1Cl

Reply:
1: 0.966; 2: 0.998; 3: 0.851; 4: 0.95; 5: 0.962; 6: 0.985
